- Study system: T1, human CD47ECD-linker peptide-7his (human, UniProt Q08722 19-139)
- T1 construct: also called hCD47-his; human CD47-his
- T1 sequence (Q08722 other isoform, or with tags, fused parts or gaps limits assumed): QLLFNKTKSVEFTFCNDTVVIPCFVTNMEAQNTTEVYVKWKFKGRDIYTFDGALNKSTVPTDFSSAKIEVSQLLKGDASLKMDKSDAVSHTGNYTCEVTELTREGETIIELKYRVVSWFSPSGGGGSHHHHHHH
- Experiment summary: ELISA, hCD47-his coated at 1 µg/ml, cell culture supernatant
# Lookup of reported OD450 keyed by entry
Respond with the bare value in OD450.

- Binder: "059-1.30.1 (antibody, mouse IgG1, V domains shown, also called 059-1.30.1 purified antibody) VH: EVQLQQSGPELVKPGASVRMSCKASGYTFTNYVMHWVKQKPGQGLEWIGYINPYNDGTKYSEKFKGKATLTSDKSSITAYMELSSLTSEDSAVYYCAKGGLFTFDYWGQGTTLTVSS VL: DVVMTQTPLSLPVSLGDQASISCRSSQSLVHSKGNTYLHWYLQKPGQSPKLLIYRVSNRFSGVPDRFSGSGSGTDFTLKISRVEAEDLGVYFCSQSTHVPFTFGSGTKLEIK"
  OD450 / OD450: 4

Then there is this binder:
IN: Given 059-1.43.1 (antibody, mouse IgG1, V domains shown, also called 059-1.43.1 purified antibody) VH: QVQLQQSGAELVRPGASVTLSCKASGYTFTDYEMHWVKQTPVHGLEWIGAIDPETGGTAYNQKFKGKATLTADKSSSTAYMELRSLTSEDSAVYYCTRGTPYAMDYWGQGTSVTVSS VL: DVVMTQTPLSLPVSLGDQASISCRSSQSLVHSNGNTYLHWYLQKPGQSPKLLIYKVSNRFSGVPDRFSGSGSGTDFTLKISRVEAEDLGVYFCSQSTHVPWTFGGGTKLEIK , state its recorded OD450.
OUT: 4
